- Target of assay: SARS-CoV-2 Mpro (Severe acute respiratory syndrome coronavirus 2)
Overview of reported IC50 across a group of molecules:

// known answers, use as guide
{"columns": ["Molecule", "Target of assay", "IC50"],
 "data": [
  ["CC(=O)c1ccc(NC(=O)Cn2cc(CN3C(=O)C(=O)c4ccccc43)nn2)cc1 [10a]", "SARS-CoV-2 Mpro (Severe acute respiratory syndrome coronavirus 2)", "12.3 µM"],
  ["NS(=O)(=O)c1ccc(NC(=O)Cn2cc(CN3C(=O)C(=O)c4cc(OC(F)(F)F)ccc43)nn2)cc1 [6d]", "SARS-CoV-2 Mpro (Severe acute respiratory syndrome coronavirus 2)", "1.05 µM"],
  ["COc1ccc2c(c1)C(=O)C(=O)N2Cc1cn(CC(=O)Nc2ccc(C(C)=O)cc2)nn1 [10b]", "SARS-CoV-2 Mpro (Severe acute respiratory syndrome coronavirus 2)", "17.1 µM"]
]}

Let's switch to this molecule now.
Entry NS(=O)(=O)c1ccc(NC(=O)Cn2cc(CN3C(=O)C(=O)c4ccccc43)nn2)cc1 [6a] under SARS-CoV-2 Mpro (Severe acute respiratory syndrome coronavirus 2) had IC50 of 0.562 µM
